- target or test system: Acetylcholinesterase (Electrophorus electricus)
- assay text: Competitive inhibition of electric eel AChE using acetylthiocholine chloride as substrate at pH 7 by Michaelis-Menten plot analysis
Please provide measured Ki for the entries that follow.
Give the number; µM is assumed, so skip it.

## Input In one line, give reported Ki of the entry "Cc1c(CCO)sc[n+]1C" .
## Output 148

## Input In one line, give reported Ki of the entry Cc1ncc(C[n+]2csc(CCO)c2C)c(N)n1 [THIAMINE] .
## Output 432

## Input In one line, give reported Ki of the entry "Nc1ccncn1" .
## Output 5020

## Input In one line, give reported Ki of the entry "Cc1ncc(C[n+]2csc(CCOP(=O)(O)OP(=O)(O)OP(=O)(O)O)c2C)c(N)n1" .
## Output 5200

## Input In one line, give reported Ki of the entry "Cc1ncc(C)c(N)n1" .
## Output 111

## Input In one line, give reported Ki of the entry "Cc1cscn1" .
## Output 5420

## Input In one line, give reported Ki of the entry "CCc1sc[n+](C)c1C" .
## Output 11.1

## Input In one line, give reported Ki of the entry "CCc1scnc1C" .
## Output 468

## Input In one line, give reported Ki of the entry "C[n+]1ccsc1" .
## Output 317

## Input In one line, give reported Ki of the entry Cc1ncc(CN2CSC(CCO)C2C)c(N)n1 (centres undefined) .
## Output 188

## Input In one line, give reported Ki of the entry Cc1ncc(C[n+]2csc(CCOP(=O)(O)O)c2C)c(N)n1 [MONOPHOSPHOTHIAMINE] .
## Output 3010

## Input In one line, give reported Ki of the entry "Cc1ncsc1CCO" .
## Output 7990

## Input In one line, give reported Ki of the entry "Cc1ncc(C[n+]2csc(CCO[P@](=O)(O)OP(=O)(O)O)c2C)c(N)n1" .
## Output 14600

## Input In one line, give reported Ki of the entry "Cc1csc[n+]1C" .
## Output 67.9

---

- target or test system: Acetylcholinesterase (Electrophorus electricus)
- assay text: Competitive inhibition of electric eel AChE using acetylthiocholine chloride as substrate at pH 8.25 by Michaelis-Menten plot analysis
measured metric: log10 Ki (log10 of the value in µM)
Record value = log10 of Ki given in µM.

## Input In one line, give reported log10 Ki of the entry "C[n+]1ccsc1" .
## Output 2.46

## Input In one line, give reported log10 Ki of the entry "CCc1scnc1C" .
## Output 2.75

## Input In one line, give reported log10 Ki of the entry "Cc1ncsc1CCO" .
## Output 3.94

## Input In one line, give reported log10 Ki of the entry "CCc1sc[n+](C)c1C" .
## Output 0.92

## Input In one line, give reported log10 Ki of the entry Cc1ncc(CN2CSC(CCO)C2C)c(N)n1 (stereo not given) .
## Output 2.70

## Input In one line, give reported log10 Ki of the entry "Cc1ncc(C[n+]2csc(CCO[P@](=O)(O)OP(=O)(O)O)c2C)c(N)n1" .
## Output 4.15

## Input In one line, give reported log10 Ki of the entry "Cc1c(CCO)sc[n+]1C" .
## Output 1.88

## Input In one line, give reported log10 Ki of the entry "Cc1csc[n+]1C" .
## Output 1.74

## Input In one line, give reported log10 Ki of the entry "Cc1cscn1" .
## Output 3.78

## Input In one line, give reported log10 Ki of the entry "Cc1ncc(C[n+]2csc(CCO)c2C)c(N)n1" .
## Output 2.59

## Input In one line, give reported log10 Ki of the entry Cc1ncc(CN2CSC3CCOC32C)c(N)n1 (stereo not given) .
## Output 2.73

## Input In one line, give reported log10 Ki of the entry "Cc1ncc(C)c(N)n1" .
## Output 2.21

## Input In one line, give reported log10 Ki of the entry "Nc1ccncn1" .
## Output 3.99

## Input In one line, give reported log10 Ki of the entry "Cc1ncc(C[n+]2csc(CCOP(=O)(O)OP(=O)(O)OP(=O)(O)O)c2C)c(N)n1" .
## Output 4.00

## Input In one line, give reported log10 Ki of the entry "Cc1ncc(C[n+]2csc(CCOP(=O)(O)O)c2C)c(N)n1" .
## Output 4.05

---

- target or test system: Acetylcholinesterase (Electrophorus electricus, UniProt O42275)
- Sequence (O42275 whole entry): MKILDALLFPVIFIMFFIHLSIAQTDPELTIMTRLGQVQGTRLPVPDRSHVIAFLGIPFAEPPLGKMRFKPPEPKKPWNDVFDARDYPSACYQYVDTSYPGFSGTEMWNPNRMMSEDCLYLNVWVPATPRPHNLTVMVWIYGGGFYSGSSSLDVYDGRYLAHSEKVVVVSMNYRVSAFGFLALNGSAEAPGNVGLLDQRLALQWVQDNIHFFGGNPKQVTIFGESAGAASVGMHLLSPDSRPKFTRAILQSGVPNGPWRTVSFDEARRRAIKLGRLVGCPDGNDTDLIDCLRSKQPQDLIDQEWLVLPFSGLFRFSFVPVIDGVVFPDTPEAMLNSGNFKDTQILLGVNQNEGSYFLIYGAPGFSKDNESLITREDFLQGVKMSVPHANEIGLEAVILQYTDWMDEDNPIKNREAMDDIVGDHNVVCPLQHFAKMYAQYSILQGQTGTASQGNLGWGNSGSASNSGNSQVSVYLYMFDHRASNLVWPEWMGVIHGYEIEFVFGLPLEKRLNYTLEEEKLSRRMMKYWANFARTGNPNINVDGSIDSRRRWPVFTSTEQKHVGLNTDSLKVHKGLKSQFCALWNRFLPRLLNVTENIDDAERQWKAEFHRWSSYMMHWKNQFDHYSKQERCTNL
- assay text: Noncompetitive inhibition of electric eel AChE using acetylthiocholine chloride as substrate at pH 7 by Michaelis-Menten plot analysis
measured metric: Ki (µM)
Give the number; µM is assumed, so skip it.

## Input In one line, give reported Ki of the entry "Cc1ncc(C[n+]2csc(CCO)c2C)c(N)n1" .
## Output 565

## Input In one line, give reported Ki of the entry "Cc1ncc(C)c(N)n1" .
## Output 260

## Input In one line, give reported Ki of the entry "Cc1ncc(C[n+]2csc(CCOP(=O)(O)OP(=O)(O)OP(=O)(O)O)c2C)c(N)n1" .
## Output 881

## Input In one line, give reported Ki of the entry "Cc1c(CCO)sc[n+]1C" .
## Output 1250

## Input In one line, give reported Ki of the entry "Cc1csc[n+]1C" .
## Output 9.8

## Input In one line, give reported Ki of the entry "Cc1ncsc1CCO" .
## Output 1370

## Input In one line, give reported Ki of the entry Cc1ncc(CN2CSC(CCO)C2C)c(N)n1 (centres undefined) .
## Output 624

## Input In one line, give reported Ki of the entry "Cc1ncc(C[n+]2csc(CCOP(=O)(O)O)c2C)c(N)n1" .
## Output 9270

## Input In one line, give reported Ki of the entry "C[n+]1ccsc1" .
## Output 939

## Input In one line, give reported Ki of the entry "CCc1sc[n+](C)c1C" .
## Output 5.43

## Input In one line, give reported Ki of the entry "Cc1cscn1" .
## Output 3250

## Input In one line, give reported Ki of the entry "Nc1ccncn1" .
## Output 8850

## Input In one line, give reported Ki of the entry "Cc1ncc(C[n+]2csc(CCO[P@](=O)(O)OP(=O)(O)O)c2C)c(N)n1" .
## Output 6740

## Input In one line, give reported Ki of the entry "CCc1scnc1C" .
## Output 1950

---

- target or test system: Acetylcholinesterase (Electrophorus electricus)
- assay text: Noncompetitive inhibition of electric eel AChE using acetylthiocholine chloride as substrate at pH 8.25 by Michaelis-Menten plot analysis
measured metric: Ki (µM)
Give the number; µM is assumed, so skip it.

## Input Recall the reported Ki of "CCc1sc[n+](C)c1C" when tested on Acetylcholinesterase (Electrophorus electricus).
## Output 0.935

## Input Recall the reported Ki of "Cc1ncc(C)c(N)n1" when tested on Acetylcholinesterase (Electrophorus electricus).
## Output 551

## Input Recall the reported Ki of "Nc1ccncn1" when tested on Acetylcholinesterase (Electrophorus electricus).
## Output 4240

## Input Recall the reported Ki of "Cc1ncc(C[n+]2csc(CCOP(=O)(O)O)c2C)c(N)n1" when tested on Acetylcholinesterase (Electrophorus electricus).
## Output 5930

## Input Recall the reported Ki of "Cc1csc[n+]1C" when tested on Acetylcholinesterase (Electrophorus electricus).
## Output 445

## Input Recall the reported Ki of Cc1ncc(CN2CSC(CCO)C2C)c(N)n1 (stereo not given) when tested on Acetylcholinesterase (Electrophorus electricus).
## Output 839

## Input Recall the reported Ki of "Cc1ncc(C[n+]2csc(CCOP(=O)(O)OP(=O)(O)OP(=O)(O)O)c2C)c(N)n1" when tested on Acetylcholinesterase (Electrophorus electricus).
## Output 1000

## Input Recall the reported Ki of "Cc1ncc(C[n+]2csc(CCO)c2C)c(N)n1" when tested on Acetylcholinesterase (Electrophorus electricus).
## Output 333

## Input Recall the reported Ki of "Cc1ncsc1CCO" when tested on Acetylcholinesterase (Electrophorus electricus).
## Output 706

## Input Recall the reported Ki of Cc1ncc(CN2CSC3CCOC32C)c(N)n1 (stereo not given) when tested on Acetylcholinesterase (Electrophorus electricus).
## Output 237

## Input Recall the reported Ki of "Cc1ncc(C[n+]2csc(CCO[P@](=O)(O)OP(=O)(O)O)c2C)c(N)n1" when tested on Acetylcholinesterase (Electrophorus electricus).
## Output 58400

## Input Recall the reported Ki of "Cc1c(CCO)sc[n+]1C" when tested on Acetylcholinesterase (Electrophorus electricus).
## Output 18800

## Input Recall the reported Ki of "Cc1cscn1" when tested on Acetylcholinesterase (Electrophorus electricus).
## Output 109000

## Input Recall the reported Ki of "CCc1scnc1C" when tested on Acetylcholinesterase (Electrophorus electricus).
## Output 51100

## Input Recall the reported Ki of "C[n+]1ccsc1" when tested on Acetylcholinesterase (Electrophorus electricus).
## Output 2.95
